System: 945468-187-T-J2-PDC spheroids viability
Assay: Anticancer human tumor 945468-187-T-J2-PDC patient-derived rectal carcinoma cell line growth inhibition [PI3K]
Settings: second compound 0.1 µM; first compound 1 µM; stronger effect = lower value; spheroids with HUVEC and MSC
Kindly apply the following: MET if viability, T/C is less than 80%, NOT MET in every other case.

# example entries with known answers
Given Cn1ncc(Cl)c1-c1cc(C(=O)NC(CN)Cc2cccc(F)c2)sc1Cl (stereo unspecified) + CC(Nc1ccc2c(c1)OCCn1cc(N3C(=O)OCC3C(F)F)nc1-2)C(N)=O , is recorded viability, T/C strictly lower than 80%?
MET

Lab log: compare recorded viability, T/C with 80%; is it strictly lower for Cn1nccc1Nc1nccc(-c2ccn(C(CO)c3ccc(Cl)c(F)c3)c(=O)c2)n1 (stereo unspecified) + CC(Nc1ncnc2nc[nH]c12)c1cc2cccc(Cl)c2c(=O)n1-c1ccccc1 ?
NOT MET

Is it true that viability, T/C reported for CNC(=O)c1ccc(N2C(=S)N(c3ccc(C#N)c(C(F)(F)F)c3)C(=O)C2(C)C)cc1F + Cc1nc(NC(=O)N2CCCC2C(N)=O)sc1-c1ccnc(C(C)(C)C(F)(F)F)c1 is less than 80%?
NOT MET

Say whether its viability, T/C is strictly beneath 80%. Entry: CC(Cn1ccc(-c2ccc(C#N)c(Cl)c2)n1)NC(=O)c1cc(C(C)O)[nH]n1 (stereo unspecified) + CC(Nc1ncnc2nc[nH]c12)c1cc2cccc(Cl)c2c(=O)n1-c1ccccc1
NOT MET

Is viability, T/C strictly under 80% for the entry C[C@@H](NC(=O)c1ncnc(N)c1Cl)c1ncc(C(=O)Nc2cc(C(F)(F)F)c(Cl)cn2)s1 + CC(Nc1ccc2c(c1)OCCn1cc(N3C(=O)OCC3C(F)F)nc1-2)C(N)=O ?
NOT MET

Dear reviewer, please state whether CC1(C)CCC(Nc2ncc(C(F)(F)F)c(-c3c[nH]c4c(P(C)(C)=O)c(C#N)ccc34)n2)CN1 (stereo unspecified) + CC(Nc1ncnc2nc[nH]c12)c1cc2cccc(Cl)c2c(=O)n1-c1ccccc1 has viability, T/C strictly beneath 80%.
MET

Below 80% on viability, T/C? Entry CCN1CCN(Cc2ccc(Nc3ncc(F)c(-c4cc(F)c5nc(C)n(C(C)C)c5c4)n3)nc2)CC1 + CC(Nc1ncnc2nc[nH]c12)c1cc2cccc(Cl)c2c(=O)n1-c1ccccc1
MET

hey, is viability, T/C for CCCS(=O)(=O)Nc1ccc(F)c(C(=O)c2c[nH]c3ncc(-c4ccc(Cl)cc4)cc23)c1F + COc1c(OCCCN2CCOCC2)ccc2c3n(c(=NC(=O)c4cnc(N)nc4)nc12)CCN3 lower than 80% or not?
MET

More entries:
Item CC1(C)CCC(CN2CCN(c3ccc(C(=O)NS(=O)(=O)c4ccc(NCC5CCOCC5)c([N+](=O)[O-])c4)c(Oc4cnc5[nH]ccc5c4)c3)CC2)=C(c2ccc(Cl)cc2)C1 + Cc1nc(NC(=O)N2CCCC2C(N)=O)sc1-c1ccnc(C(C)(C)C(F)(F)F)c1 : viability, T/C beneath 80%, strictly?
NOT MET

###

Test system: 945468-187-T-J2-PDC spheroids viability
Assay: Anticancer human tumor 945468-187-T-J2-PDC cell line growth inhibition [PI3K];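 also: spheroids exposed to compounds for seven days before reading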
Details: curve of first compound; second compound 0.1 µM; spheroids with HUVEC and MSC
From the text: Combinatorial screen of targeted agents with the PI3K inhibitors inavolisib, alpelisib, duvelisib, and copanlisib in multi-cell type tumor spheroids A high-throughput screen of multi-cell type tumor spheroids was designed to identify active combinations of targeted small molecules and PI3K pathway inhibitors. […] Compounds. […] If the clinical Cmax for an agent had not been determined, the highest concentration tested was 10 microM. […]
# pIC50 values compiled below
A value of pIC50 is the negative decimal logarithm of a concentration given in moles per litre.

Could you tell me which pIC50 is on file for CC1(C)CCC(Nc2ncc(C(F)(F)F)c(-c3c[nH]c4c(P(C)(C)=O)c(C#N)ccc34)n2)CN1 (stereo not drawn) + CC(Nc1ccc2c(c1)OCCn1cc(N3C(=O)OCC3C(F)F)nc1-2)C(N)=O ?
5.97

Okay, next one:
What value of pIC50 has been recorded for this entry: CCN1CCN(Cc2ccc(Nc3ncc(F)c(-c4cc(F)c5nc(C)n(C(C)C)c5c4)n3)nc2)CC1 + COc1c(OCCCN2CCOCC2)ccc2c3n(c(=NC(=O)c4cnc(N)nc4)nc12)CCN3
6.70

###

Test system: 945468-187-T-J2-PDC spheroids viability
Assay: Anticancer human tumor 945468-187-T-J2-PDC cell line growth inhibition [PI3K];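 also: spheroids exposed to compounds for seven days before reading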
Settings: second compound 0.0316 µM; first compound 0.949 µM; stronger effect = lower value; spheroids with HUVEC and MSC
Measured viability, T/C by item
Express the result in % but write the number alone.

Record request: viability, T/C value, item Cn1cnc2c(F)c(Nc3ccc(Br)cc3Cl)c(C(=O)NOCCO)cc21 + Cc1nc(NC(=O)N2CCCC2C(N)=O)sc1-c1ccnc(C(C)(C)C(F)(F)F)c1
66.7

Suppose we examine the molecule Cn1cnc2c(F)c(Nc3ccc(Br)cc3Cl)c(C(=O)NOCCO)cc21 + CC(Nc1ccc2c(c1)OCCn1cc(N3C(=O)OCC3C(F)F)nc1-2)C(N)=O ; what viability, T/C value has been reported?
78.8

What value of measured viability, T/C is listed for Cn1cnc2c(F)c(Nc3ccc(Br)cc3Cl)c(C(=O)NOCCO)cc21 + CC(Nc1ncnc2nc[nH]c12)c1cc2cccc(Cl)c2c(=O)n1-c1ccccc1 ?
92

New cases:
For Cn1cnc2c(F)c(Nc3ccc(Br)cc3Cl)c(C(=O)NOCCO)cc21 + COc1c(OCCCN2CCOCC2)ccc2c3n(c(=NC(=O)c4cnc(N)nc4)nc12)CCN3 , what is its reported viability, T/C?
71.9

###

Test system: 945468-187-T-J2-PDC spheroids viability
Test: Anticancer human tumor 945468-187-T-J2-PDC cell line growth inhibition [PI3K];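 also: spheroids exposed to compounds for seven days before reading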
Settings: curve of first compound; second compound 0.0316 µM; spheroids with HUVEC and MSC
measurement_type: IC50

Answered cases to consult:
Suppose we examine the molecule C[C@@H](NC(=O)c1ncnc(N)c1Cl)c1ncc(C(=O)Nc2cc(C(F)(F)F)c(Cl)cn2)s1 + CC(Nc1ncnc2nc[nH]c12)c1cc2cccc(Cl)c2c(=O)n1-c1ccccc1 ; what IC50 value has been reported?
> 10 µM

Can you share its IC50? I mean this molecule: CC(=O)c1c(C)c2cnc(Nc3ccc(N4CCNCC4)cn3)nc2n(C2CCCC2)c1=O + Cc1nc(NC(=O)N2CCCC2C(N)=O)sc1-c1ccnc(C(C)(C)C(F)(F)F)c1
> 0.1 µM

Shifting focus to the molecule that follows.
Any idea what IC50 was measured for CCCS(=O)(=O)Nc1ccc(F)c(C(=O)c2c[nH]c3ncc(-c4ccc(Cl)cc4)cc23)c1F + CC(Nc1ccc2c(c1)OCCn1cc(N3C(=O)OCC3C(F)F)nc1-2)C(N)=O ?
5.45 µM

###

Tested on: 945468-187-T-J2-PDC spheroids viability
Test: Anticancer human tumor 945468-187-T-J2-PDC cell line growth inhibition [PI3K];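 also: spheroids exposed to compounds for seven days before reading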
Details: curve of first compound; second compound 0.316 µM; spheroids with HUVEC and MSC
pIC50: −log10 of the molar value.
Overview of reported pIC50 across a group of compounds:

Param item = Cn1nccc1Nc1nccc(-c2ccn(C(CO)c3ccc(Cl)c(F)c3)c(=O)c2)n1 (centres undefined) + CC(Nc1ncnc2nc[nH]c12)c1cc2cccc(Cl)c2c(=O)n1-c1ccccc1 ; retrieve measured pIC50.
< 5.00

I am curious: what pIC50 value has been reported for CC1(C)CCC(Nc2ncc(C(F)(F)F)c(-c3c[nH]c4c(P(C)(C)=O)c(C#N)ccc34)n2)CN1 (centres undefined) + COc1c(OCCCN2CCOCC2)ccc2c3n(c(=NC(=O)c4cnc(N)nc4)nc12)CCN3 ?
> 7.50

For Cn1nccc1Nc1nccc(-c2ccn(C(CO)c3ccc(Cl)c(F)c3)c(=O)c2)n1 (centres undefined) + CC(Nc1ccc2c(c1)OCCn1cc(N3C(=O)OCC3C(F)F)nc1-2)C(N)=O , what is its reported pIC50?
< 5.00

The record that follows has no pIC50 shown yet.
Entry C=CC(=O)N1CCN(c2nc(=O)n(-c3c(C)ccnc3C(C)C)c3nc(-c4c(O)cccc4F)c(F)cc23)C(C)C1 (centres undefined) + CC(Nc1ccc2c(c1)OCCn1cc(N3C(=O)OCC3C(F)F)nc1-2)C(N)=O has what pIC50?
< 5.00

###

Test system: 945468-187-T-J2-PDC spheroids viability
Experiment: Anticancer human tumor 945468-187-T-J2-PDC cell line growth inhibition [PI3K];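 also: spheroids exposed to compounds for seven days before reading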
Settings: second compound 0.01 µM; first compound 0.1 µM; stronger effect = lower value; spheroids with HUVEC and MSC
measurement_type: viability, T/C

Find viability, T/C (945468-187-T-J2-PDC spheroids viability) for the entry C[C@@H](NC(=O)c1ncnc(N)c1Cl)c1ncc(C(=O)Nc2cc(C(F)(F)F)c(Cl)cn2)s1 + COc1c(OCCCN2CCOCC2)ccc2c3n(c(=NC(=O)c4cnc(N)nc4)nc12)CCN3
119%

Lab request: please report viability, T/C under test system 945468-187-T-J2-PDC spheroids viability for CC1(C)CCC(CN2CCN(c3ccc(C(=O)NS(=O)(=O)c4ccc(NCC5CCOCC5)c([N+](=O)[O-])c4)c(Oc4cnc5[nH]ccc5c4)c3)CC2)=C(c2ccc(Cl)cc2)C1 + CC(Nc1ccc2c(c1)OCCn1cc(N3C(=O)OCC3C(F)F)nc1-2)C(N)=O
104%

Let us examine a further case.
For 945468-187-T-J2-PDC spheroids viability, provide viability, T/C of CC1(C)CCC(Nc2ncc(C(F)(F)F)c(-c3c[nH]c4c(P(C)(C)=O)c(C#N)ccc34)n2)CN1 (stereo not drawn) + CC(Nc1ccc2c(c1)OCCn1cc(N3C(=O)OCC3C(F)F)nc1-2)C(N)=O please.
92.7%
